Structures can show the parent of a compound that is named as a salt.
IC50 values recorded for human FGFR1 (Homo sapiens, UniProt P11362)
Just the number in nM, nothing appended.

Example cases with answers are listed next.
COc1cc(OC)c(F)c(Cc2c[nH]c3ncc(-c4ccc(C5(C#N)CCNCC5)cc4)cc23)c1F [Hydrochloride of embodiment 57]    1.1
COc1cc(OC)c(F)c(Cc2c[nH]c3ncc(-c4cnn(C5CCN(C)CC5)c4)cc23)c1F [Trifluoroacetate salt of embodiment 13]    0.04

Then there is this compound:
Determine reported IC50 for COCCNCCn1cc(-c2cnc3[nH]cc(Cc4c(F)c(OC)cc(OC)c4F)c3c2)cn1 [Hydrochloride of embodiment 70] ; test system: human FGFR1 (Homo sapiens, UniProt P11362). 0.5
